molecular target: Tubulin (Bos taurus) (UniProt Q6B856+Q862L2+Q862F3); test: Inhibition of bovine brain tubulin polymerization by fluorescence based tubulin polymerization assay
Mark y for INH under 20 µM, n if at or over.

INSERT INTO measurements (smiles_string, group_label) VALUES
  ('COc1ccc(-c2cc(/C=C3\C(=O)Nc4ccccc43)[nH]n2)cc1OC', 'n'),
  ('O=C1Nc2ccc(F)cc2/C1=C/c1cc(-c2ccc3c(c2)OCO3)n[nH]1', 'n'),
  ('COc1ccc(-c2cc(/C=C3\C(=O)Nc4ccc([N+](=O)[O-])cc43)[nH]n2)cc1OC', 'y'),
  ('COc1ccc(-c2cc(/C=C3\C(=O)Nc4ccc(Cl)cc43)[nH]n2)cc1', 'y'),
  ('COc1ccc(-c2cc(/C=C3\C(=O)Nc4cc(Cl)ccc43)[nH]n2)cc1OC', 'y');

----------
Reported INH by item:
biological target: Tubulin (Bos taurus) (UniProt Q6B856+Q862L2+Q862F3); assay: Inhibition of bovine brain tubulin polymerization by fluorescence based tubulin polymerization assay
recorded-metric: INH

INSERT INTO measurements (smiles_string, assay_target, recorded_metric, value_measured) VALUES
  ('COc1ccc(-c2cc(/C=C3\C(=O)Nc4ccc(F)cc43)[nH]n2)cc1', 'Tubulin (Bos taurus) (UniProt Q6B856+Q862L2+Q862F3)', 'INH', '25 µM'),
  ('COc1ccc(-c2cc(/C=C3\C(=O)Nc4ccc(Cl)cc43)[nH]n2)cc1OC', 'Tubulin (Bos taurus) (UniProt Q6B856+Q862L2+Q862F3)', 'INH', '33.8 µM'),
  ('COC(=O)Nc1nc2cc(C(=O)c3cccs3)ccc2[nH]1', 'Tubulin (Bos taurus) (UniProt Q6B856+Q862L2+Q862F3)', 'INH', '2.2 µM'),
  ('COc1ccc2c(c1)/C(=C/c1cc(-c3ccc(OC)c(OC)c3)n[nH]1)C(=O)N2', 'Tubulin (Bos taurus) (UniProt Q6B856+Q862L2+Q862F3)', 'INH', '22.1 µM'),
  ('COc1ccc2c(c1)/C(=C/c1cc(-c3cc(OC)c(OC)c(OC)c3)n[nH]1)C(=O)N2', 'Tubulin (Bos taurus) (UniProt Q6B856+Q862L2+Q862F3)', 'INH', '16 µM'),
  ('COc1cc(-c2cc(/C=C3\C(=O)Nc4ccccc43)[nH]n2)cc(OC)c1OC', 'Tubulin (Bos taurus) (UniProt Q6B856+Q862L2+Q862F3)', 'INH', '18 µM');

----------
tested on: A549; assay: Cytotoxicity against human A549 cells assessed as cell viability after 48 hrs by MTT assay; assay type: functional, cell-based; conditions: A549, 48 h
Mark T for IC50 under 30 µM, F if at or over.

INSERT INTO results (smiles_string, group_label) VALUES
  ('COc1ccc(-c2cc(/C=C3\C(=O)Nc4cc(Cl)ccc43)[nH]n2)cc1', 'T'),
  ('COc1ccc2c(c1)/C(=C/c1cc(-c3ccc4c(c3)OCO4)n[nH]1)C(=O)N2', 'T'),
  ('O=C1Nc2ccc([N+](=O)[O-])cc2/C1=C/c1cc(-c2ccc3c(c2)OCO3)n[nH]1', 'F'),
  ('COc1ccc(-c2cc(/C=C3\C(=O)Nc4ccc([N+](=O)[O-])cc43)[nH]n2)cc1OC', 'F'),
  ('COc1ccc(-c2cc(/C=C3\C(=O)Nc4ccc(F)cc43)[nH]n2)cc1', 'T'),
  ('COc1ccc(-c2cc(/C=C3\C(=O)Nc4ccc(OC)cc43)[nH]n2)cc1', 'T'),
  ('COc1ccc(-c2cc(/C=C3\C(=O)Nc4ccc(Cl)cc43)[nH]n2)cc1', 'T'),
  ('COc1ccc(-c2cc(/C=C3\C(=O)Nc4cc(Cl)ccc43)[nH]n2)cc1OC', 'T'),
  ('COc1ccc(-c2cc(/C=C3\C(=O)Nc4ccc(Cl)cc43)[nH]n2)cc1OC', 'T'),
  ('COc1ccc2c(c1)/C(=C/c1cc(-c3ccc(OC)c(OC)c3)n[nH]1)C(=O)N2', 'T'),
  ('O=C1Nc2ccc(F)cc2/C1=C/c1cc(-c2ccc3c(c2)OCO3)n[nH]1', 'T'),
  ('COc1cc(-c2cc(/C=C3\C(=O)Nc4ccccc43)[nH]n2)cc(OC)c1OC', 'T'),
  ('COc1cc(-c2cc(/C=C3\C(=O)Nc4ccc(Cl)cc43)[nH]n2)cc(OC)c1OC', 'T'),
  ('O=C1Nc2ccc(Cl)cc2/C1=C/c1cc(-c2ccc3c(c2)OCO3)n[nH]1', 'T'),
  ('O=C1Nc2cc(Cl)ccc2/C1=C/c1cc(-c2ccc3c(c2)OCO3)n[nH]1', 'T'),
  ('COc1cc(-c2cc(/C=C3\C(=O)Nc4ccc([N+](=O)[O-])cc43)[nH]n2)cc(OC)c1OC', 'T'),
  ('COc1ccc2c(c1)/C(=C/c1cc(-c3cc(OC)c(OC)c(OC)c3)n[nH]1)C(=O)N2', 'F'),
  ('COc1ccc(-c2cc(/C=C3\C(=O)Nc4ccc([N+](=O)[O-])cc43)[nH]n2)cc1', 'T'),
  ('COc1cc(-c2cc(/C=C3\C(=O)Nc4cc(Cl)ccc43)[nH]n2)cc(OC)c1OC', 'F');
